Where these numbers come from: patent US6821980B1

# target-entity: purified DHFR of strain Sp1/1 of Streptococcus pneumoniae (Streptococcus pneumoniae serotype 4, UniProt Q54801)
# Sequence (Q54801 whole entry I100L, form open): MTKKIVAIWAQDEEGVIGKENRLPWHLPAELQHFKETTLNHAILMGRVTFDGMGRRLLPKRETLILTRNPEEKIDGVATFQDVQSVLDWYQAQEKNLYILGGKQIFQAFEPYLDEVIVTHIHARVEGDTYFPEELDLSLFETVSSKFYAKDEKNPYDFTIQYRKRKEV
# Format: biochemical
# experimental-context: Table 2; IC50 against purified DHFR of strain Sp1/1
pIC50: −log10 of the molar value.

molecule	pIC50
CCOc1cc(Cc2cnc(N)nc2N)cc(OS(=O)(=O)C(C)C)c1-c1ccc(CN(C)C)c(N)c1 [Example 33-f]	7.05
CCOc1cc(Cc2cnc(N)nc2N)cc(OS(=O)(=O)C(C)C)c1-c1ccc(OC)c(N)c1 [Example 33-a]	7.92
CCOc1cc(Cc2cnc(N)nc2N)cc(OCC2CC2)c1-c1ccc(N)c(C)c1 [Example 11-a]	7.74
CCOc1cc(Cc2cnc(N)nc2N)cc(OCC)c1-c1ccc(C=O)cc1 [Example 02-ag]	6.89
CCOc1cc(Cc2cnc(N)nc2N)cc(OS(=O)(=O)C(C)C)c1-c1ccc2c(c1)OCO2 [Example 17-c]	7.48
CCOc1cc(Cc2cnc(N)nc2N)cc(OC2CCCC2)c1-c1cccc(N)c1 [Example 07-d]	8.09
CCOc1cc(Cc2cnc(N)nc2N)cc(OCC(C)(C)CO)c1-c1ccc(O)cc1 [Example 08-p]	7.70
CCOc1cc(Cc2cnc(N)nc2N)cc(OS(=O)(=O)CC(C)(C)C)c1-c1ccc(OC)c(N)c1 [Example 37-b]	8.77
CCCS(=O)(=O)Oc1cc(Cc2cnc(N)nc2N)cc(OCC)c1-c1ccc2c(c1)OCO2 [Example 17-d]	7.85
CCOc1cc(Cc2cnc(N)nc2N)cc(OCC)c1-c1ccc(OC)c(N)c1 [Example 04-i]	7.37
CCOc1cc(Cc2cnc(N)nc2N)cc(OCC)c1-c1ccc(CN2CCOCC2)c(N)c1 [Example 04-j]	7.32
CCOc1cc(Cc2cnc(N)nc2N)cc(OS(=O)(=O)c2ccc(OC)c(F)c2)c1-c1ccc(O)cc1 [Example 15-j]	8.77
CCOc1cc(Cc2cnc(N)nc2N)cc(OCC2CC2)c1-c1ccc(OCC#N)cc1 [Example 59-]	7.74
CCOc1cc(Cc2cnc(N)nc2N)cc(OS(=O)(=O)C(C)C)c1-c1ccc(C)nc1 [Example 33-g]	7.12
CCOc1cc(Cc2cnc(N)nc2N)cc(OS(=O)(=O)CC)c1-c1ccc(OC)cc1 [Example 16-b]	7.41
CCOc1cc(Cc2cnc(N)nc2N)cc(OCC(C)(C)/C=C/C#N)c1-c1ccc(O)cc1 [Example 08-b]	7.42

* * *

# target-entity: purified DHFR of strain Sp1/1 of Streptococcus pneumoniae (Streptococcus pneumoniae serotype 4)
# Type: biochemical
# experimental-context: Table 2; IC50 against purified DHFR of strain Sp1/1
Entries whose IC50 is below 30 nM take yes (1); entries at or above 30 nM take no (0).

compound	group-label
CCOc1cc(Cc2cnc(N)nc2N)cc(OS(=O)(=O)CC2CC2)c1-c1ccc(CN2CCOCC2)c(N)c1 [Example 38-d]	yes (1)
CCOc1cc(Cc2cnc(N)nc2N)cc(OCC)c1-c1ccc(CNCCF)cc1 [Example 04-ag]	no (0)
CCOc1cc(Cc2cnc(N)nc2N)cc(OC2CCC2)c1-c1cccc(N)c1 [Example 07-e]	yes (1)
CCCS(=O)(=O)Oc1cc(Cc2cnc(N)nc2N)cc(OCC)c1-c1ccc(CN(C)C)c(N)c1 [Example 32-g]	no (0)
CCOc1cc(Cc2cnc(N)nc2N)cc(OS(=O)(=O)C2CC2)c1-c1ccc(CN2CCOCC2)c(N)c1 [Example 34-e]	yes (1)
CCOc1cc(Cc2cnc(N)nc2N)cc(OS(=O)(=O)N(C)C)c1-c1ccc2[nH]ccc2c1 [Example 43-d]	no (0)
CCOc1cc(Cc2cnc(N)nc2N)cc(OC2CCC(OC)C2)c1-c1ccc(O)cc1 (centres unmarked) [Example 08-r]	no (0)
CCOc1cc(Cc2cnc(N)nc2N)cc(OS(=O)(=O)C2CCOCC2)c1-c1cccc(N)c1 [Example 41-c]	yes (1)

* * *

# System: Staphylococcus aureus 101
# test-summary: MIC against Staphylococcus aureus 101
# Assay type: cell-based
# experimental-context: Table 2; Staphylococcus aureus 101, MRSA- and trimethoprim-resistant; clinical isolate; read-out: MIC Sa101
The following compounds are listed with their measured MIC values.

compound	MIC / µg/mL
CCOc1cc(Cc2cnc(N)nc2N)cc(OC2CCC(CC#N)C2)c1-c1ccc(O)cc1 (stereo not shown)	8
CCOc1cc(Cc2cnc(N)nc2N)cc(OS(=O)(=O)N(C)C)c1-c1ccc(OC(C)=O)cc1	2
CCOc1cc(Cc2cnc(N)nc2N)cc(OCC)c1-c1ccc(OC)c(C)c1	8
CCOc1cc(Cc2cnc(N)nc2N)cc(OS(=O)(=O)N(C)C)c1-c1ccc(CN(C)CCF)cc1	2

* * *

The following compounds are listed with their measured MIC Sa101 values.
# Test system: Staphylococcus aureus 101
# test-summary: MIC against Staphylococcus aureus 101
# Type: cell-based
# experimental-context: Table 2; Staphylococcus aureus 101, MRSA- and trimethoprim-resistant; clinical isolate

molecule	unit-abbreviation	MIC Sa101
CCOc1cc(Cc2cnc(N)nc2N)cc(OS(=O)(=O)C(C)C)c1-c1cc(N)cc(F)c1	µg/mL	2
CCOc1cc(Cc2cnc(N)nc2N)cc(OS(=O)(=O)CC(C)(C)OC)c1-c1ccc(N)c(F)c1	µg/mL	8
CCOc1cc(Cc2cnc(N)nc2N)cc(OS(=O)(=O)C2CCC2)c1-c1ccc(N)c(F)c1	µg/mL	2
CCCS(=O)(=O)Oc1cc(Cc2cnc(N)nc2N)cc(OCC)c1-c1ccc(CN2CCOCC2)c(N)c1	µg/mL	4
CCOc1cc(Cc2cnc(N)nc2N)cc(OCC)c1-c1ccc(CN2CCOCC2)c(N)c1	µg/mL	8

* * *

The following compounds are listed with their measured MIC values.
# Test system: Staphylococcus aureus 101
# test-summary: MIC against Staphylococcus aureus 101
# Assay type: cell-based
# experimental-context: Table 2; Staphylococcus aureus 101, MRSA- and trimethoprim-resistant; clinical isolate; read-out: MIC Sa101
property: MIC (µg/mL)

compound	property	recorded-number
CCOc1cc(Cc2cnc(N)nc2N)cc(OCC)c1-c1ccc(N)c(C#N)c1 [Example 04-h]	MIC	4
CCOc1cc(Cc2cnc(N)nc2N)cc(OS(=O)(=O)N(C)C2CC2)c1-c1cc(N)cc(F)c1 [Example 29-a]	MIC	1
CCOc1cc(Cc2cnc(N)nc2N)cc(OCC)c1-c1ccc(O)c(F)c1 [Example 02-ae]	MIC	4
CCOc1cc(Cc2cnc(N)nc2N)cc(OCC2(C#N)CC2)c1-c1ccc(O)cc1 [Example 08-f]	MIC	8
CCOc1cc(Cc2cnc(N)nc2N)cc(OS(=O)(=O)N(C)C)c1-c1cc(N)cc(F)c1 [Example 29-b]	MIC	2
CCOc1cc(Cc2cnc(N)nc2N)cc(OS(=O)(=O)N(C)CC)c1-c1ccc(NC)cc1 [Example 26-b]	MIC	1
CCOc1cc(Cc2cnc(N)nc2N)cc(OC2CCCC2)c1-c1ccc(O)cc1 [Example 08-j]	MIC	2
CCOc1cc(Cc2cnc(N)nc2N)cc(OCC)c1-c1ccc(NC)cc1 [Example 04-ab]	MIC	8
CCOc1cc(Cc2cnc(N)nc2N)cc(OS(=O)(=O)CC2CC2)c1-c1ccc(N)c(C)c1 [Example 38-c]	MIC	2
CCOc1cc(Cc2cnc(N)nc2N)cc(OCC)c1-c1ccc2[nH]ncc2c1 [Example 02-g]	MIC	8
CCOc1cc(Cc2cnc(N)nc2N)cc(OS(=O)(=O)N(C)C)c1-c1ccc(OC)cc1 [Example 21-]	MIC	2
CCOc1cc(Cc2cnc(N)nc2N)cc(OS(=O)(=O)C2CC2)c1-c1ccc(NC)cc1 [Example 34-b]	MIC	2
CCOc1cc(Cc2cnc(N)nc2N)cc(OCC2CC2)c1-c1ccc(N)cc1 [Example 13-]	MIC	8
CCOc1cc(Cc2cnc(N)nc2N)cc(OS(=O)(=O)C2CCC2)c1-c1cccc(N)c1 [Example 40-a]	MIC	2
CCOc1cc(Cc2cnc(N)nc2N)cc(OS(=O)(=O)N(C)CC)c1-c1cccc(N)c1 [Example 19-f]	MIC	1
CCOc1cc(Cc2cnc(N)nc2N)cc(OS(=O)(=O)CC)c1-c1ccc2c(c1)OCO2 [Example 17-b]	MIC	4
CCOc1cc(Cc2cnc(N)nc2N)cc(OS(=O)(=O)C(C)C)c1-c1ccc(O)cc1 [Example 15-c]	MIC	1
C=C(C)COc1cc(Cc2cnc(N)nc2N)cc(OCC)c1-c1ccc2c(c1)OCO2 [Example 10-f]	MIC	8
CCOc1cc(Cc2cnc(N)nc2N)cc(OS(=O)(=O)N2CCCCC2)c1-c1cccc(N)c1 [Example 19-b]	MIC	1
CCOc1cc(Cc2cnc(N)nc2N)cc(OS(=O)(=O)C2CCC2)c1-c1cc(N)cc(F)c1 [Example 40-e]	MIC	2
CCOc1cc(Cc2cnc(N)nc2N)cc(OCC(C)C)c1-c1ccc2c(c1)OCO2 [Example 10-c]	MIC	8
CCOc1cc(Cc2cnc(N)nc2N)cc(OS(=O)(=O)CC(C)C)c1-c1ccc(N)c(C)c1 [Example 36-a]	MIC	2
CCOc1cc(Cc2cnc(N)nc2N)cc(OS(=O)C(C)(C)C)c1-c1ccc(O)cc1 (stereo not drawn) [Example 15-i]	MIC	2
CCOc1cc(Cc2cnc(N)nc2N)cc(OCC)c1-c1ccc(N(C)C)cc1 [Example 02-v]	MIC	8
CCOc1cc(Cc2cnc(N)nc2N)cc(OCC2CC2)c1-c1ccc(O)cc1 [Example 08-h]	MIC	4
CCOc1cc(Cc2cnc(N)nc2N)cc(OS(C)(=O)=O)c1-c1ccc(OC)cc1 [Example 16-a]	MIC	4
CCOc1cc(Cc2cnc(N)nc2N)cc(OS(=O)(=O)C(C)C)c1-c1ccc(OC)c(N)c1 [Example 33-a]	MIC	1
CCOc1cc(Cc2cnc(N)nc2N)cc(OCC)c1-c1ccc(OC)c(N)c1 [Example 04-i]	MIC	8
CCOc1cc(Cc2cnc(N)nc2N)cc(OS(=O)(=O)C2CC2)c1-c1cc(N)cc(F)c1 [Example 34-c]	MIC	4
CCOc1cc(Cc2cnc(N)nc2N)cc(OS(=O)(=O)N(C)CC)c1-c1ccc(C)c(N)c1 [Example 31-b]	MIC	2
CCOc1cc(Cc2cnc(N)nc2N)cc(OCC)c1-c1ccc(CN2CCOCC2)s1 [Example 02-ac]	MIC	8
CCOc1cc(Cc2cnc(N)nc2N)cc(OCC)c1-c1cccc(OCCOC)c1 [Example 50-]	MIC	8
CCOc1cc(Cc2cnc(N)nc2N)cc(OS(=O)(=O)c2cccs2)c1-c1cccc(N)c1 [Example 14-f]	MIC	4
